target: Focal adhesion kinase 1 (Homo sapiens); assay: small-molecule microarray binders of FAK, primary screen, biochemical, 635/667 nm fluorescence, BSA, DTT (AID 1130); settings: PTK2 binding, 635 nm fluorescence, higher = more signal;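 also: composite of spot emission at 667 nm and signal to noise over triplicate slides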
assay.metric: composite z-score

- compound: "[N-]=[N+]=Nc1ccccc1C[C@]1(C(=O)N2CCCCC2)N=C(c2ccc(OCCCO)cc2)O[C@H]1c1ccccc1"
  measured: 0.307
- compound: "CN1C(=O)C2CC=C(C3=CCO[C@@H]3[C@H]3CCCN3S(=O)(=O)c3ccccc3[N+](=O)[O-])CC2C1=O (some centres undefined)"
  measured: -0.244
- compound: "C=C(COC)C(=O)CC[C@H](OC(C)=O)c1ccccc1OCCO"
  measured: 0.253
- compound: "C=CC[C@H](O)c1ccc(O)c(F)c1"
  measured: -0.677
